# credit: PubChem BioAssay AID1346428

molecular target: Probable G-protein coupled receptor 32 (Homo sapiens); assay: qHTS for Agonists of Human Resolvin D1 Receptor DRV1; settings: CHO-K1 GPR32 beta-arrestin PathHunter luminescence, 90 min; at 76.9 µM; stronger effect = higher value; zero percent set by DMSO-only wells
Out of some 48,000 compounds screened, about 1,200 (2.5%) were called active. Inconclusive results (about 2%) are left out. The entries come from a sample that favours actives as a whole.
Label rule, in plain words: activation of -10% and up is Fulfilled, under -10% is Not fulfilled.

Below, 3 compounds whose answers are already recorded.
CC1=C(C(=O)O)N2C(=O)[C@@H](N)[C@H]2SC1: Not fulfilled
c1ccc2c(c1)[I+]c1ccccc1-2: Fulfilled
NCCc1ccc(S(=O)(=O)F)cc1: Fulfilled

*Q* Kindly determine if activation recorded for `Nc1ccc([N+](=O)[O-])cc1` is above or exactly -10%.
*A* Not fulfilled

*Q* Kindly determine if activation recorded for C=CCN1CCC23c4c5ccc(O)c4O[C@H]2C(=O)CC[C@@]3(O)C1C5 (some centres not stated) is above or exactly -10%.
*A* Not fulfilled

*Q* Kindly determine if activation recorded for CC1N=C(N)OC1c1ccccc1 (configuration not stated) is above or exactly -10%.
*A* Not fulfilled

*Q* Kindly determine if activation recorded for `CC[N+]1(CCOC(=O)C(O)(c2ccccc2)c2ccccc2)CCCCC1` is above or exactly -10%.
*A* Fulfilled
